B1: Hairpin Ribozyme (parent)
chain: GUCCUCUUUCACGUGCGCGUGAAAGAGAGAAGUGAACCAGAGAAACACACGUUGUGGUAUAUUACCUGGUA

Variants of: B1
Test: self-cleavage, relative activity (ratio to wild type); higher = more cleavage; co-transcriptional
The entries below come with measured self-cleavage values attached.
Just the number.

{"columns": ["monomer_sequence", "obs_value"],
 "data": [
  ["GUCCUCUGUCACGUGCGCGUGAAGGAGAGAAGUGAACCAGAGAAACACACGUUGUGGUAUAUUACCUGGUA", 0.632],
  ["GUCCUCUUUCACGUGCGCGGGAUAGAGAGAAGUGAACCAGAGAAACACACGUUGUGGUAUAUUACCUGGUA", 0.712],
  ["GUCCUCUUUCACGUGCGCGUGAAAGAGAGAAGUGAACCAGAGAAACAAACGUUGUGGUAUAUUACCUGGUG", 0.19],
  ["GUCCUCUUUCACGUGCGCGUGAAAGAGAGAUGUGAACCACAGAAACACACGUUGUGGUAUAUUACCUGGUA", 0.154]
]}

Qu. Look up self-cleavage: GUCCUCUUUCACGUGCGCGUGCAAGAGAGAAGUGAACCAGAGAAACACACGUUGUGGUAUAUUACCUGUUA
Ans. 0.152

Qu. Look up self-cleavage: GUCCUCUUUCACGUGCGCGUGAAAGAGAGAAGUGAACCAGAGAAAGACACGUUGUGGUAUAUUACCUGAUA
Ans. 0.179

Qu. Look up self-cleavage: GUCCUCUUUCACGUGCGCGUGAAAGAGAGAAGUGAACCAGAGAAACACACGUUGUGGUAUAUCAACUGGUA
Ans. 0.106

Qu. Look up self-cleavage: GUUCUCUUUCACGUGCGCGUGAAAGAGAGAAGUGAACCAGAGAAACACGCGUUGUGGUAUAUUACCUGGUA
Ans. 0.409

Qu. Look up self-cleavage: GUCCUCUUUCACGUGCGCGUGAAAGAGACAAGUGAACCAGAGAAACAAACGUUGUGGUAUAUUACCUGGUA
Ans. 0.136

Qu. Look up self-cleavage: GUCCUCUUACACGUGGGCGUGAAAGAGAGAAGUGAACCAGAGAAACACACGUUGUGGUAUAUUACCUGGUA
Ans. 0.511

Qu. Look up self-cleavage: GUCCUCUUUCACGUGCGCGUGAAAGAGAGAAGUGAAUCAGAAAAACACACGUUGUGGUAUAUUACCUGGUA
Ans. 0.198
